Data provenance: patent US9493446B2

assaySystem: human orexin-2 receptor (Homo sapiens (Human))
Sequence (O43614 whole entry): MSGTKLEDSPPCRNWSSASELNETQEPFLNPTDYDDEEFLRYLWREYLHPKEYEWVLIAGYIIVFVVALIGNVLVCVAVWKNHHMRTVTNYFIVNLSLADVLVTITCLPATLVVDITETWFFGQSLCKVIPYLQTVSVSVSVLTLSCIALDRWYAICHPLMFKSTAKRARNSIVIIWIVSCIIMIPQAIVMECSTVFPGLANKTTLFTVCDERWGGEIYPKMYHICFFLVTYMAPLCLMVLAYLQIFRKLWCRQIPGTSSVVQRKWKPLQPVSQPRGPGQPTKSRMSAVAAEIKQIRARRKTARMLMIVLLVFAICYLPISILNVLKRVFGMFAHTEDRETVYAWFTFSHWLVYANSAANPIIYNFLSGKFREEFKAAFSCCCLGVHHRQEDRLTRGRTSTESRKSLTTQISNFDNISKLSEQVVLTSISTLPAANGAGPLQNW
assayInfo: Intracellular calcium measurement (FLIPR), CHO cells expressing human orexin-2 receptor, 3 nM orexin-A
Assay type: cell-based
conditionInfo: CHO cells expressing human orexin-2 receptor, FLIPR, 3 nM orexin-A; geometric mean if determined several times; read-out: IC50 OX2
pIC50: −log10 of the molar value.
observationType: pIC50

Please review the following examples before continuing.
INSERT INTO assay_data (chemicalsmiles, observationtype, numericvalue) VALUES
  ('Cc1ccc(-c2noc([C@@H]3CCCN3C(=O)c3cc(C)ccc3-n3nccn3)n2)c(C)c1', 'pIC50', 7.72),
  ('Cc1cc(C(=O)N2CCC[C@H]2c2nc(-c3ccccc3Cl)no2)c(-n2nccn2)cc1C', 'pIC50', 7.80),
  ('Cc1c(Cl)cccc1-c1noc([C@@H]2CCCN2C(=O)c2cc(OC(F)(F)F)ccc2-n2nccn2)n1', 'pIC50', 6.21);

1: Cc1ccc(-n2nccn2)c(C(=O)N2CCC[C@H]2c2nc(-c3cccc(F)c3)no2)c1
2: Cc1ccc(-c2ccccc2)c(C(=O)N2CCC[C@H]2c2nc(-c3ccccc3OC(F)(F)F)no2)c1
3: Cc1ccc(-n2nccn2)c(C(=O)N2CCC[C@H]2c2nc(-c3c(C)cccc3F)no2)c1
4: COc1cc(C(=O)N2CCC[C@H]2c2cc(-c3ccccc3)on2)c(-n2nccn2)cc1C
Query: Order the records, beginning with the lowest pIC50 and ending with the highest. When ranking, write the labels in the order the request describes.
Response: 1, 3, 4, 2
